test system: Rattus norvegicus; test: Effective dose is defined as the dose that reduces the response seen with 2 units of agonist to equal the response seen with 1 unit of agonist administered before antagonist.; format: functional
*1 amine or outer side, *2 acyl side, *3 side chain or, on linkers, in order; H or OH if unused. Where a SMILES comes first, the peptide text is derived from it. Bridges are numbered along the chain shown (N, C = ends). The star is where a group is joined. X1 = O=C(CC1(S[*:2])CCCCC1)[*:1]; iPr = CC(C)*
Give measured Effective dose for each item. Keep answers brief.
Respond numerically; units are nM/kg and should not be typed.

Exercise: Please report the recorded Effective dose for CC(C)Oc1ccc(C[C@@H]2NC(=O)CC3(CCCCC3)SSC[C@@H](C(=O)N3CCC[C@H]3C(=O)N[C@@H](CCCN=C(N)N)C(=O)NCC(N)=O)NC(=O)[C@H](CC(N)=O)NC(=O)[C@H](C(C)C)NC(=O)[C@H](Cc3ccccc3)NC2=O)cc1 (Y(iPr)FVNCPRG-NH2; linker N-5 via X1) .
Key: 1.6

Exercise: Given the entry `CC(C)[C@@H]1NC(=O)[C@H](Cc2ccccc2)NC(=O)[C@@H](Cc2ccc(O)cc2)NC(=O)CC2(CCCCC2)SSC[C@@H](C(=O)N2CCC[C@H]2C(=O)N[C@@H](CCCN=C(N)N)C(=O)NCC(N)=O)NC(=O)[C@H](CC(N)=O)NC1=O` , report its measured Effective dose.
Key: 2.2

###

tested on: Rattus norvegicus; test: Effective dose is defined as the dose that reduces the response seen with 2 units of agonist to equal the response seen with 1 unit of agonist administered before antagonist.; format: functional
test.readout: Effective dose
Please answer using a numeric value trailed by its unit.

Exercise: Requested field: Effective dose. Item: CC(C)[C@@H]1NC(=O)[C@H](Cc2ccccc2)NC(=O)[C@H](Cc2ccc(O)cc2)NC(=O)CC2(CCCCC2)SSC[C@@H](C(=O)N2CCC[C@H]2C(=O)N[C@@H](CCCN=C(N)N)C(=O)NCC(N)=O)NC(=O)[C@H](CC(N)=O)NC1=O (stereo in doubt; 9)
Key: 6.3 nM/kg

###

test system: Rattus norvegicus; assay: Effective dose is defined as the dose that reduces the response seen with 2 units of agonist to equal the response seen with 1 unit of agonist administered before antagonist.; assay type: functional
*1 amine or outer side, *2 acyl side, *3 side chain or, on linkers, in order; H or OH if unused. Where a SMILES comes first, the peptide text is derived from it. Bridges are numbered along the chain shown (N, C = ends). [ ]: non-standard residue; d: D form. The star is where a group is joined. X1 = O=C(CC1(S[*:2])CCCCC1)[*:1]; Propyl = CCC*; iPr = CC(C)*
Give Effective dose for every item shown.
Response body: numeric value in nM/kg, unit text excluded.

Exercise: Item CCCOc1ccc(C[C@@H]2NC(=O)CC3(CCCCC3)SSC[C@@H](C(=O)N3CCC[C@H]3C(=O)N[C@@H](CCCN=C(N)N)C(=O)NCC(N)=O)NC(=O)[C@H](CC(N)=O)NC(=O)[C@H](C(C)C)NC(=O)[C@H](Cc3ccccc3)NC2=O)cc1 (Y(Propyl)FVNCPRG-NH2; linker N-5 via X1) has what recorded Effective dose?
Key: 1.7

Exercise: Which measured Effective dose value corresponds to COc1ccc(C[C@@H]2NC(=O)CC3(CCCCC3)SSC[C@@H](C(=O)N3CCC[C@H]3C(=O)N[C@@H](CCCN=C(N)N)C(=O)NCC(N)=O)NC(=O)[C@H](CC(N)=O)NC(=O)[C@H](C(C)C)NC(=O)[C@H](Cc3ccccc3)NC2=O)cc1 (Y(Me)FVNCPRG-NH2; linker N-5 via X1) ?
Key: 1.2

Exercise: Consider the compound CC(C)Oc1ccc(C[C@@H]2NC(=O)CC3(CCCCC3)SSC[C@@H](C(=O)N3CCC[C@H]3C(=O)N[C@H](CCCN=C(N)N)C(=O)NCC(N)=O)NC(=O)[C@H](CC(N)=O)NC(=O)[C@H](C(C)C)NC(=O)[C@H](Cc3ccccc3)NC2=O)cc1 (Y(iPr)FVNCP[dR]G-NH2; linker N-5 via X1) and give its measured Effective dose.
Key: 2.2

Exercise: Fill in: Effective dose of CCOc1ccc(C[C@@H]2NC(=O)CC3(CCCCC3)SSC[C@@H](C(=O)N3CCC[C@H]3C(=O)N[C@H](CCCN=C(N)N)C(=O)NCC(N)=O)NC(=O)[C@H](CC(N)=O)NC(=O)[C@H](C(C)C)NC(=O)[C@H](Cc3ccccc3)NC2=O)cc1 (Y(Et)FVNCP[dR]G-NH2; linker N-5 via X1) is ___
Key: 1.8

Exercise: Request the reported Effective dose associated with CCOc1ccc(C[C@@H]2NC(=O)CC3(CCCCC3)SSC[C@@H](C(=O)N3CCC[C@H]3C(=O)N[C@@H](CCCN=C(N)N)C(=O)NCC(N)=O)NC(=O)[C@H](CC(N)=O)NC(=O)[C@H](C(C)C)NC(=O)[C@H](Cc3ccccc3)NC2=O)cc1 (Y(Et)FVNCPRG-NH2; linker N-5 via X1)
Key: 1.1
